For each entry below, report its pKd value.
- SYSTEM NAME: Ac-Arg-His-Lys-Lys^Ac-AMC
- MEASUREMENT NOTES: ITC binding of STACs to Ac-Arg-His-Lys-Lys^Ac-X, X=AMC
- EXPERIMENTAL CONDITIONS: 10% DMSO for SRT1720, SRT2183 and 10, no cosolvent for SRT1460
pKd: −log10 of the molar value.

Past entries and their recorded results:
- MOLECULE: "O=C(Nc1ccccc1-c1cn2c(CN3CC[C@@H](O)C3)csc2n1)c1ccc2ccccc2c1 [SRT2183]"
  pKd: "< 4.30"
- MOLECULE: "COc1cc(C(=O)Nc2ccccc2-c2cn3c(CN4CCNCC4)csc3n2)cc(OC)c1OC [SRT1460]"
  pKd: "< 3.30"
- MOLECULE: "CCCCc1nc(NC2CCNCC2)cc(C(=O)Nc2ccccc2-c2nc3cc(COC4CCNCC4)cnc3s2)n1 [Compound 10]"
  pKd: "< 3.30"

If you can, please state the reported pKd value of O=C(Nc1ccccc1-c1cn2c(CN3CCNCC3)csc2n1)c1cnc2ccccc2n1 [SRT1720] .
< 3.30

* * *

- SYSTEM NAME: SIRT1 (Homo sapiens)
- Sequence (Q96EB6 whole entry): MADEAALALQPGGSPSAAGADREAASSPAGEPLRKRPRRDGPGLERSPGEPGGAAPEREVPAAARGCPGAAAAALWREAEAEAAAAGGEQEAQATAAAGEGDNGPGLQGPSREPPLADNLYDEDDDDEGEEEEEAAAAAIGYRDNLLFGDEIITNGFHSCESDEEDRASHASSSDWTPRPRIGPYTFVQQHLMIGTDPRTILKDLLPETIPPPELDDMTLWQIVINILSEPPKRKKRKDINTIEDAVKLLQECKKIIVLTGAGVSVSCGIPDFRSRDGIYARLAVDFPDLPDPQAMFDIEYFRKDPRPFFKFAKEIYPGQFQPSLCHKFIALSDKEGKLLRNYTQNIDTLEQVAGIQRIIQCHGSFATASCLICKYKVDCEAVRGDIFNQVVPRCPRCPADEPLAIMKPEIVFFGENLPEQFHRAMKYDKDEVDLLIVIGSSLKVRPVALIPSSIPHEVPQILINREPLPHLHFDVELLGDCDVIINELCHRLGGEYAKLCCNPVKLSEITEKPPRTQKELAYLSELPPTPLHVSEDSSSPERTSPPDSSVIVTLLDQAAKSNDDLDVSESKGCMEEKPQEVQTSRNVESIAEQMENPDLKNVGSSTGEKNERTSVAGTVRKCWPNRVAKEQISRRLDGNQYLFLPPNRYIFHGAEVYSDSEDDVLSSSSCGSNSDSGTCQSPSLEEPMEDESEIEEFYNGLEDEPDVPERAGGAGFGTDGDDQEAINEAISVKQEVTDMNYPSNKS
- MEASUREMENT NOTES: Steady-state kinetic parameters for SIRT1 substrates (PNC1-GDH-coupled assay)
- Format: biochemical
- Parameters: unit not given here
- EXPERIMENTAL CONDITIONS: 25° C., pH 7.5, [NAD+]o = 2 mM, [SIRT1]o 50-1,000 nM
- Protocol: All peptides were prepared by BioPeptide (San Diego, Calif.) and shown to be at least 95% pure by analytical HPLC analysis. Bovine glutamate dehydrogenase (GDH), α-ketoglutarate, NADH and NAD^+ were from Sigma Chemical Company. […] To determine the interaction of STACs with SIRT1 two kinetic methods were employed. […] This reaction occurs with oxidation of NADH to NAD^+ which is accompanied by a change in absorbance at 340 nm (Δε340=−6,200 M^−1 cm^−1). […]
Peptide text beside a SMILES is read from it. * marks the point of attachment. AMC = Cc1cc(=O)oc2cc(N*)ccc12
Kindly state kc/K1 for each of the entries shown.

In the examples that follow, each entry is paired with its recorded kc/K1.
- COMPOUND: "CC(=O)NCCCC[C@H](NC(=O)[C@H](CCCCN)NC(=O)[C@H](Cc1c[nH]cn1)NC(=O)[C@H](CCCNC(=N)N)NC(C)=O)C(N)=O [RHKK^Ac, Ac-Arg-His-Lys-Lys^Ac-NH2] (Ac-RHKK(Ac)-NH2)"
  SYSTEM NAME: "SIRT1 (Homo sapiens)"
  kc/K1: 6.0
- COMPOUND: "CC(=O)NCCCC[C@H](NC(=O)[C@H](CCCCN)NC(=O)[C@H](Cc1c[nH]cn1)NC(=O)[C@H](CCCNC(=N)N)NC(C)=O)C(=O)Nc1ccc2c(C)cc(=O)oc2c1 [RHKK^Ac-AMC, Ac-Arg-His-Lys-Lys^Ac-AMC] (Ac-RHKK(Ac)-{AMC})"
  SYSTEM NAME: "SIRT1 (Homo sapiens)"
  kc/K1: 0.8
- COMPOUND: "CC(=O)NCCCC[C@H](NC(=O)[C@H](CCCCN)NC(=O)[C@H](Cc1c[nH]cn1)NC(=O)[C@H](CCCNC(=N)N)NC(C)=O)C(=O)N[C@@H](Cc1c[nH]c2ccccc12)C(N)=O [RHKK^AcW, Ac-Arg-His-Lys-Lys^Ac-Trp-NH2] (Ac-RHKK(Ac)W-NH2)"
  SYSTEM NAME: "SIRT1 (Homo sapiens)"
  kc/K1: 48
- COMPOUND: "CC(=O)NCCCC[C@H](NC(=O)[C@H](CCCCN)NC(=O)[C@H](Cc1c[nH]cn1)NC(=O)[C@H](CCCNC(=N)N)NC(C)=O)C(=O)N[C@@H](Cc1ccccc1)C(N)=O [RHKK^AcF, Ac-Arg-His-Lys-Lys^Ac-Phe-NH2] (Ac-RHKK(Ac)F-NH2)"
  SYSTEM NAME: "SIRT1 (Homo sapiens)"
  kc/K1: 23

# input for lookup
kc/K1 for CC(=O)NCCCC[C@H](NC(=O)[C@H](CCCCN)NC(=O)[C@H](Cc1c[nH]cn1)NC(=O)[C@H](CCCNC(=N)N)NC(C)=O)C(=O)N[C@@H](C)C(N)=O [RHKK^AcA, Ac-Arg-His-Lys-Lys^Ac-Ala] (Ac-RHKK(Ac)A-NH2) ?
12

Numbers sourced from patent US20130102009A1.
